Measured On: T1, recombinant human IL-23R/Fc chimera (R&D Systems) (human, UniProt Q5VWK5 24-355)
T1 construct: Bought; also called rhIL23RFc
T1 sequence (looked up): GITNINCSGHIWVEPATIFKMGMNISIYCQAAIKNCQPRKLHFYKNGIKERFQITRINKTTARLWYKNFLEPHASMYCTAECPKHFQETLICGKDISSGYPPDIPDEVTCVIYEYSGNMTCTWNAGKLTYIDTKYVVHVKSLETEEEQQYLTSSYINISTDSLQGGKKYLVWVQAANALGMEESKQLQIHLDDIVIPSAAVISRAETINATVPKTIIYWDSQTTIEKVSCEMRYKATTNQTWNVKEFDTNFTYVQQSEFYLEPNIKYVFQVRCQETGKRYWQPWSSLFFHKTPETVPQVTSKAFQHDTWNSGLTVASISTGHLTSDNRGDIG
Method Notes: SPR
Measured Property: Ka (M⁻¹)
Unit M⁻¹ implied. Number only.

{"columns": ["Binder", "Unit Info", "Endpoint Result"],
 "data": [
  ["001-89.C12E monomeric CTLD (designed binder, C-terminal tag not specified) ALQTVCLKGTKVHMKCFLAFTQTKTFHEASEDCISRGGTLSTPQTGSENDALYEYLRQSVGNEAEIWLGLNWTKRTALWVDMTGARIAYKNWETEITAQPDGGMFGMGENCAVLSGAANGKWFDKRCRDQLPYICQFGIV", "M⁻¹", "5.62e+06"]
]}

Input line: For the binder 001-87.A9E monomeric CTLD (designed binder, C-terminal tag not specified) ALQTVCLKGTKVHMKCFLAFTQTKTFHEASEDCISRGGTLSTPQTGSENDALYEYLRQSVGNEAEIWLGLNGSALTNTWVDMTGARIAYKNWETEITAQPDGGLGYWGENCAVLSGAANGKWFDKRCRDQLPYICQFGIV , what Ka is on record?
Output line: 9.29e+06

Input line: For the binder 101-113-6C108 ATRIMER complex (designed binder, Forms a homotrimer through the tetranectin coiled coil; one protomer is given., not shown: C-terminal tag: His/Myc (pANA4) or HA-StrepII (pANA10)) EPPTQKPKKIVNAKKDVVNTKMFEELKSRLDTLAQEVALLKEQQALQTVCLKGTKVHMKCFLAFTQTKTFHEASEDCISRGGTLSTPQTGSENDALYEYLRQSVGNEAEIWLGLNGSALTNTWVDMTGARIAYKNWEPPPPHHPMGGFGVFGENCAVLSGAANGKWFDKRCRDQLPYICQFGIV , what Ka is on record?
Output line: 1.63e+09
